Test: GC/MS of blood plasma sample: time from blood collection to cooling of blood (Table B)
Assay type: physicochemical, human
Design: key: detection intensity relative to 1 at cooling time ≤1 min
Settings: different from individual to individual, individuals with increase, relative to 1 at 1 minute or less, collection to cooling 5 minutes
Protocol: At room temperature, 5 mL of blood from a healthy subject was taken into a blood-collecting vessel containing EDTA, and the blood-collecting vessel was inverted for mixing, then cooled, and allowed to stand at 4° C. […]
readout.label: Rate of increase or decrease (first value, increase)

Here are 2 compounds together with their reported answers.
Cn1c(=O)[nH]c2ncn(C)c2c1=O [Paraxanthine]    2.33
O=C(O)c1cccnc1C(=O)O [Quinolinic acid]    1.67

A = OC[C@H]1O[C@H](O[C@H]2O[C@H](CO)[C@@H](O)[C@H](O)[C@H]2O)[C@H](O)[C@@H](O)[C@@H]1O [Trehalose]
B = O=C(O)C(O)Cc1ccccc1 (stereo not drawn) [3-Phenyllactic acid]
C = O=c1ccn([C@@H]2O[C@H](CO)[C@@H](O)[C@H]2O)c(=O)[nH]1 [Uridine]
Rank the 3 compounds: largest Rate of increase or decrease (first value, increase) first, smallest last. Thanks in advance for listing the labels in the requested order.
A, C, B
